# Tested on: SK-MEL-5 melanoma
# assay.name: NCI-60 one-dose screen, 48 h (100 = growth as untreated, 0 = no growth, -100 = all killed)
# protocol.conditions: 10 µM unless noted
The panel holds about 83,000 compounds, 20% with a hit somewhere; the sample as a whole holds those more often.
reported.endpoint: growth (%)
Answer with a number only, understood to be in %.

Value of growth reported for the compound CCCCn1c(=O)c(-c2cc(-c3ccc(Cl)cc3)nc(-c3ccc(Cl)cc3)c2)cc2cc(C)ccc21 is 104

Value of growth reported for the compound COc1ccc(C2C(N)=NNC2c2cccc(O)c2)cc1 (stereo not given) is 101

Value of growth reported for the compound O=C(S)CNC(=O)c1ccccc1 is 99.7

Value of growth reported for the compound O=C(CCOCCNC(=O)COc1ccc2c(c1)OCC(c1ccc(F)cc1)C2=O)NCCCC(O)(P(=O)(O)O)P(=O)(O)O (stereo not given) is 101

Value of growth reported for the compound CNC(=O)c1cc(-n2ccc3cc(NC(=O)c4ccc(N5CCOCC5)c(C(F)(F)F)c4)ccc32)ccn1 is 24.6

Value of growth reported for the compound COc1ccc(C(=S)N2CCN(c3cccc(C)c3)CC2)cc1OC is 60.2

Value of growth reported for the compound CCCCNC(=O)Oc1ccc(/C(=C(\C)c2ccc(Cl)cc2)c2ccc(OCCN(CC)CC)cc2)cc1 is 78.4

Value of growth reported for the compound CC([C@H]1CCC2C3CCC4C(=O)C(NC=O)=CC[C@]4(C)C3CC[C@@]21C)N(C)C (stereo not given in full) is -56

Value of growth reported for the compound Cc1ccc(-c2nc3c(c(-c4ccccc4)nn3-c3ccccc3)c(-c3ccc(O)cc3)c2C#N)cc1 is 77.6

Value of growth reported for the compound Clc1ccc2c(c1)N(CCCN1CCCC1)c1ccccc1S2 is -86.5

Value of growth reported for the compound O=C(/C=C/c1sc(Cl)nc1Cl)c1ccc(Br)cc1 is 89.2

Value of growth reported for the compound COc1cc(C(=O)c2cnc(-c3c[nH]c4cccc(C)c34)[nH]2)cc(OC)c1OC is -30.7

Value of growth reported for the compound CCCCCCNC(=O)Oc1ccc(/C(=C(\C)c2ccc(OC)cc2)c2ccc(OCCN3CCCCC3)cc2)cc1 is 57.6

Value of growth reported for the compound COc1ccc(-c2[nH]c3ccc(OC)cc3c2/C=C(\C#N)S(=O)(=O)c2ccccc2)cc1 is -25.5

Value of growth reported for the compound O=C(CSc1nccc(Nc2ccc(S(=O)(=O)Nc3nccs3)cc2)n1)c1ccc(C(F)(F)F)cc1 is 95.1

Value of growth reported for the compound CC1Cc2c(ncn3c(-c4ccc(F)cc4)nnc23)N(C)c2ccccc21 (stereo not given) is 96.7

Value of growth reported for the compound O=c1c2cccc(Cl)c2sc2c(NCCCNCCO)nc3ccccc3c12 is 81.8

Value of growth reported for the compound COc1ccc(-c2cc(-c3cc(OC)c(OC)c(OC)c3)nc(N3CCOCC3)c2C#N)cc1 is 75.3

Value of growth reported for the compound O=C1/C(=C/c2ccc(F)cc2)Sc2c(Br)cccc21 is 88.1

Value of growth reported for the compound CCCCOc1ccc(/C=N/NC(N)=S)cc1 is 95.7
